All figures here come from patent US20260295053A1.

# tested.system: KRAS (G12D) (Homo sapiens, UniProt P01116, G12D)
# Construct: in-cell western with KRAS G12D antibody after 24 h
# Sequence (P01116 1-188 isoform P01116-2 G12D): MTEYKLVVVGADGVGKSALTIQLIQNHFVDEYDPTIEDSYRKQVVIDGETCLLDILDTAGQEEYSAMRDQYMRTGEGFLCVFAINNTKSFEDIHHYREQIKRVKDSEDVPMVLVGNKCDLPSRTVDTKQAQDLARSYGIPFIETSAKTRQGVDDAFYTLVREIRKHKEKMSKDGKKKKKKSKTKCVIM
# method.description: KRAS (G12D) cellular degradation assay in AsPC-1 cells
# Assay type: cell-based
# test.parameters: 24 hours, antibody fluorescence (Odyssey CLX), DC50 half-maximal degradation concentration
Recorded DC50 by entry

# input Could you share which DC50 value was measured for "CCn1nccc1-c1ccc([C@@H](NC(=O)[C@@H]2C[C@@H](O)CN2C(=O)[C@H](C(C)C)n2cc(-c3ccc(COc4c(-c5c(C)c(F)cc6[nH]ncc56)c(C5CC5)cc5c(N6C[C@@H]7C[C@H]6CN7)nc(O[C@H]6C[C@H](OC)C6)nc45)cc3)nn2)[C@@H](C)O)cc1" ?
# output < 10 nM

# input Fill in: DC50 of CCn1nccc1C#CC(CO)NC(=O)[C@@H]1C[C@@H](O)CN1C(=O)[C@H](C(C)C)n1cc(-c2ccc(COc3c(-c4c(C)c(F)cc5[nH]ncc45)c(C4CC4)cc4c(N5C[C@@H]6C[C@H]5CN6)nc(OC[C@H](C)OC)nc34)cc2)nn1 (stereo in doubt) is ___
# output < 10 nM

====

Here, each record is paired with measured DC50 data.
# tested.system: KRAS (G12D) (Homo sapiens, UniProt P01116, G12D)
# Construct: in-cell western with KRAS G12D antibody after 24 h
# method.description: KRAS (G12D) cellular degradation assay in AsPC-1 cells
# Format: cell-based
# test.parameters: 24 hours, antibody fluorescence (Odyssey CLX), DC50 half-maximal degradation concentration

# input If you can, please state the reported DC50 value of CO[C@@H](C)COc1nc(N2CC3CCC(C2)N3)c2cc(C3CC3)c(-c3c(C)c(F)cc4[nH]ncc34)c(OCc3ccc(-c4cn([C@H](C(=O)N5C[C@H](O)C[C@H]5C(=O)N[C@@H](CO)c5ccc(-c6scnc6C)cc5)C(C)C)nn4)cc3)c2n1 (single isomer, unassigned) [Example 12A] .
# output 10 to 100 nM

====

# tested.system: KRAS (G12D) (Homo sapiens, UniProt P01116, G12D)
# Construct: in-cell western with KRAS G12D antibody after 24 h
# method.description: KRAS (G12D) cellular degradation assay in AsPC-1 cells
# Type: cell-based
# test.parameters: 24 hours, antibody fluorescence (Odyssey CLX), DC50 half-maximal degradation concentration
# Experimental: ASPC-1 and PK-59 cellular assays ASPC-1 (ATCC cat. CRL-1682) and PK-59 (Nanjing Cobioer, Cat. No. CBP61184) were used in KRAS cellular degradation, pERK inhibition and proliferation assays. The two cell lines were maintained following vendor's instructions. […] Cells were incubated at 37° C. with 5% CO2 and cell density was monitored until ^~90% confluency was reached. […] Fluorescence signals were read on Odyssey CLX instrument. […]
metric.name: DC50

Some entries whose results are on file:
{"compound": "CCn1ncc2cccc(C#C[C@H](CO)NC(=O)[C@@H]3C[C@@H](O)CN3C(=O)[C@H](C(C)C)n3cc(-c4ccc(COc5c(-c6c(C)c(F)cc7[nH]ncc67)c(C6CC6)cc6c(N7C[C@@H]8C[C@H]7CN8)nc(O[C@H]7C[C@H](OC)C7)nc56)cc4)nn3)c21", "DC50": "10 to 100 nM"}
{"compound": "CO[C@@H](C)COc1nc(N(C)[C@H]2CCNC2)c2cc(C3CC3)c(-c3c(C)c(F)c(F)c4[nH]ncc34)c(OCc3ccc(-c4cn([C@H](C(=O)N5C[C@H](O)C[C@H]5C(=O)N[C@H](c5ccc(-c6scnc6C)cc5)C(C)O)C(C)C)nn4)cc3)c2n1 (stereo in doubt)", "DC50": "< 10 nM"}
{"compound": "CO[C@@H](C)COc1nc(N2C[C@H]3C[C@@H]2CN3)c2cc(C3CC3)c(-c3c(C)c(F)cc4[nH]ncc34)c(OCc3ccc(-c4cn([C@H](C(=O)N5C[C@H](O)C[C@H]5C(=O)N[C@@H](C)c5ccc(-c6scnc6C)cc5)C(C)C)nn4)cc3)c2n1 (single isomer, unassigned) [Example 3A]", "DC50": "< 10 nM"}
{"compound": "CO[C@@H](C)COc1nc(N2C[C@H]3C[C@@H]2CN3)c2cc(C3CC3)c(-c3c(C)c(F)cc4n[nH]cc34)c(OCc3ccc(-c4cn([C@H](C(=O)N5C[C@H](O)C[C@H]5C(=O)N[C@@H](CO)c5ccc(-c6c(C)noc6C)cc5)C(C)C)nn4)cc3)c2n1 (single isomer, unassigned) [Example 6A]", "DC50": "10 to 100 nM"}

# input GET /values?readout=DC50&item= CCn1nccc1-c1ccc([C@@H](NC(=O)[C@@H]2C[C@@H](O)CN2C(=O)[C@H](C(C)C)n2cc(-c3ccc(COc4c(-c5c(C)c(F)cc6[nH]ncc56)c(C5CC5)cc5c(N(C)[C@H]6CCNC6)nc(OC[C@H](C)OC)nc45)cc3)nn2)[C@H](C)O)c2c1CC2 [Example 149]
# output < 10 nM

# input Look up DC50 for this compound: CCn1nccc1-c1ccc([C@H](CO)NC(=O)[C@@H]2C[C@@H](O)CN2C(=O)[C@H](C(C)C)n2cc(-c3ccc(COc4c(-c5c(C)c(F)cc6[nH]ncc56)c(C5CC5)cc5c(N6CC7CCC(C6)N7)nc(OC[C@H](C)OC)nc45)cc3)nn2)cc1 (single isomer, unassigned) [Example 9]
# output 10 to 100 nM

# input Can you look up the measured DC50 of "CCn1nccc1-c1ccc([C@@H](NC(=O)[C@@H]2C[C@@H](O)CN2C(=O)[C@H](C(C)C)n2cc(-c3ccc(COc4c(-c5c(C)c(F)cc6[nH]ncc56)c(C5CC5)cc5c(N6CCCNCC6)nc(OC[C@H](C)OC)nc45)cc3)nn2)[C@H](C)O)cc1" for me?
# output < 10 nM
